B1: Osa-1-4 twister ribozyme (parent)
chain: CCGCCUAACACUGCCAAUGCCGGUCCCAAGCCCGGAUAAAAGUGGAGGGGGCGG

# Variants of: B1
# assay_comment: self-cleavage, relative activity (ratio to wild type); higher = more cleavage; co-transcriptional
reported_endpoint: self-cleavage

1) C11A C14G; 0.1
2) C27U G51U; 0.07
3) A16U G50A; 0.67
4) A38U G54A; 0.93
5) G30U G47U; 0.03
6) A40U C9A; 0.09
7) A16C A39C; 0.89
8) A46G G35A; 0.07
9) A41C C14U; 0.22
10) G49U; 0.23
11) A8G C27U; 0.11
12) A29C G35C; 0.02
13) C33A U43G; 0.08
14) A28U U18A; 0.91
15) G47U G54C; 0.32
16) C25U G51A; 0.51
17) G45C G49A; 0.04
18) G22U G54U; 0.6
19) A29G G19C; 0.06
20) A10C G44A; 0.06
21) A8U C26G; 0.05
22) C20G U12A; 0.09
23) G34C U18G; 0.15
24) A46U G48C; 0.04
25) G45A G48C; 0.04
26) A28G G42A; 0.1
27) A8U C27U; 0.07
28) C25U G42C; 0.11
29) A16C G51U; 0.35
30) C26A U43A; 0.05
31) G30C G45A; 0.03
32) C25A C33U; 0.07
33) C25G U43G; 0.04
34) A29U U37C; 0.14
35) C20G G44C; 0.06
36) C33U G50U; 0.88
37) A36G G50U; 1.04
38) A40C G48A; 0.02
39) A17G C33G; 0.07
40) C14A C52U; 0.13
41) G30U U12A; 0.03
42) A36C G47U; 0.07
43) A40C C32A; 0.04
44) A40G C11A; 0.14
45) C32G G45A; 0.05
46) A38C C11G; 0.5

Data origin: the RNAGym collection of RNA variant scans (doi:10.1002/anie.201605470)
